The measurements presented in this section are drawn from patent US20240360228A1.

% Blocking: recorded values
molecular target: T1, human chemokine (C-C motif) receptor 8 (CCR8) (human, UniProt P51685 1-355); experiment: flow cytometry blocking, human PBMC, CD3+ gate; competitor PE-L263G8
T1 construct: also called hCCR8
T1 sequence (P51685 whole entry): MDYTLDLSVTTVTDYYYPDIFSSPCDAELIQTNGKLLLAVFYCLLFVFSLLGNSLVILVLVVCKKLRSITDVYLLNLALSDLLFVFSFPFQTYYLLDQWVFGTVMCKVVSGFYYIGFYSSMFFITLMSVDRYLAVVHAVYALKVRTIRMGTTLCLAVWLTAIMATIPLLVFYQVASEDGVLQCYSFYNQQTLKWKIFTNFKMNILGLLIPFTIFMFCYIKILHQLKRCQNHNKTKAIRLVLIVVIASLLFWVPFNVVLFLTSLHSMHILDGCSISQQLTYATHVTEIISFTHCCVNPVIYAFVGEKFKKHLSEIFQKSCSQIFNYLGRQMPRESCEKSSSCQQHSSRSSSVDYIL
Dear colleague, please return just the value in %, with no unit written.

Recorded % Blocking, per entry:
>  <Binder>
anti-CCR8 monoclonal antibody AB5 (antibody, V domains shown, Hybridoma monoclonal; also called antibody 5; clone 5) VH: QVQLKESGPGLVQPSQTLSLTCTVSGFSLTSYHVSWVRQPPGKGLEWMGVIWTGGSTTYNSLLKSRLSISRDISKSQVFLKMNSLQTEDTATYYCARGGTVVKGGFAYWGQGTLVTVSS VL: DIQMTQSPASLSASLEEIVTITCQASQDIGNRLSWYQQKPGKSPQLLIYGATSLADGVPSRFSGSRSGTQYSLKISRLQVEDIGIYYCLQAYSTPLTFGSGTKLEIK

>  <% Blocking, %>
-22.1

$$$$
>  <Binder>
anti-CCR8 monoclonal antibody AB11 (antibody, V domains shown, Hybridoma monoclonal; also called antibody 11; clone 11) VH: EVQLVESGGGLVQPKGSLKLSCAASGFAFNTYAMNWVRQAPGKGLEWIARLRSKSNFYATYYADSVKDRFTISRDDSQSMLYLQMNNLKTEDTAVYYCVRGRELGPSYAMDYWGQGTSVTVSS VL: DIVMTQAAPSVPVTPGESVSISCRSSKSLLHSNGNTYLYWFLQRPGQSPQLLIYRMSNLASGVPDRFSGSGSGTAFTLRISRVEAEDVGVYYCMQHLEYPYTFGGGTKLEIK

>  <% Blocking, %>
92.7

$$$$
>  <Binder>
anti-CCR8 monoclonal antibody AB10 (antibody, V domains shown, Hybridoma monoclonal; also called antibody 10; clone 10) VH: EVQLVETGGGLVQPKGSLKLSCAVSGFTFKTNAMNWVRQAPGKGLEWVARIRSKSNKYATYYADSVKDRFTISRDDSQSMLYLQMNNLKTEDTAMYYCVRGSEMGYYYAMDYWGQGTSVTVSS VL: DIVMTQAAPSVPVTPGESVSISCRSSKSLLHSNGNTYLYWFLQRPGQSPQLLIYRMSNLASGVPDRFSGSGSGTAFTLRISRVEAEDVGVYYCMQHLEYPFTFGGGTKLEIK

>  <% Blocking, %>
90.3

$$$$
>  <Binder>
anti-CCR8 monoclonal antibody AB8 (antibody, V domains shown, Hybridoma monoclonal; also called antibody 8; clone 8) VH: AVQLVESGGGLVQPKESLKISCAASGFIFSNAAMYWVRQAPGKGLQWVARIRTKPKNYATYYIDSVKGRFTISRDDSKSMVYLQMDNLKTEDTAMYYCNTMGLTRAYYFDYWGQGVMVTVSS VL: DIQMTQSPSFLSASVGDRVTINCKASQNINRYLNWYQQKLGEAPKLLIYNANSLQTGIPSRFSGSGSGTDFTLTIRSLQPEDVATYFCLQHNSWPWTFGGGTKLELK

>  <% Blocking, %>
92.5

$$$$
>  <Binder>
anti-CCR8 monoclonal antibody AB13 (antibody, V domains shown, Hybridoma monoclonal; also called antibody 13; clone 13) VH: EVQLVETGGGLVQPKGSLKLSCAASGFTFNAYAMNWVRQAPGKGLEWVARIRTKSNNYATYYADSVKDRFTISRDDSQTMLYLQMNNLKTEDTAMYYCVRDRATVTTGRAMDYWGQGTSVTVSS VL: DIVMTQAAPSLPVTPGESVSISCRSSKSLLHSNGNTYLYWFLQRAGQSPQLLIYRMSNLASGVPDRFSGSGSGTAFTLRISRVEAEDVGVYYCMQHLEYPFTFGSGTKLEIK

>  <% Blocking, %>
20.3

$$$$
>  <Binder>
anti-CCR8 monoclonal antibody AB7 (antibody, V domains shown, Hybridoma monoclonal; also called antibody 7; clone 7) VH: AVQLVESGGGLVQPKESLKISCAASGFTFSYAAMYWVRQTPGKGLEWVARIRTKPNNYATYYADSVKGRFTISRDDSKSMVYLQMDNLKSEDTAMYYCNIMGITRGYYFDYWGQGVMVTVSS VL: DIQMTQSPSFLSASVGDRVTINCKASQNINRYLNWYQQQLGEAPKLLIYNANNLQTGIPSRFSGSRSGTDFTLTISSLQPEDVATYFCLQHNSWPWTFGGGTKLELK

>  <% Blocking, %>
79.7

$$$$

Quick note, % Blocking for anti-CCR8 monoclonal antibody AB6 (antibody, V domains shown, also called antibody 6; clone 6) VH: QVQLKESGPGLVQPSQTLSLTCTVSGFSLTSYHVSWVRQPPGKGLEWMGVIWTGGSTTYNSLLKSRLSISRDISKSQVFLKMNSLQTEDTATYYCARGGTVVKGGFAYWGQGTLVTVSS VL: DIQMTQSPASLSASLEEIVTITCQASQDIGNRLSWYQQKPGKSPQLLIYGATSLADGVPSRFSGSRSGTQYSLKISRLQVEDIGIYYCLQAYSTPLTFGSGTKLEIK landed at -12.1
